Taken from the METLIN SMRT retention time set (Domingo-Almenara et al. 2019).

Provide the reported RP-LC retention time of each item.
Experiment: gradient 5% acetonitrile 3 min, to 50% in 2 min, to 85% in 15 min, held 3 min, 100 µL/min
Conditions: column: Zorbax Extend-C18 2.1 x 50 mm; eluents: water / acetonitrile, 0.1% formic acid
Write it as a number; the unit s goes unstated.

Tell me measured RP-LC retention time for CCCNC(=O)C1CCCN(c2ccc(SCC(=O)Nc3ccccc3F)nn2)C1 (stereo not drawn) please.
620

Tell me measured RP-LC retention time for COCC(=O)Nc1ccccc1NC(=O)c1ccco1 please.
618

Tell me measured RP-LC retention time for CC1(C(=O)NCc2ccc(F)cc2)CCCN(C(=O)Nc2ccccc2Cl)C1 (stereo not drawn) please.
941

Tell me measured RP-LC retention time for CCn1c(=O)sc2cc(S(=O)(=O)N3CCC(C(=O)NC4CCCCC4)CC3)ccc21 please.
876

Tell me measured RP-LC retention time for CC(C)NC(=O)NCCC1CCN(S(=O)(=O)c2ccccc2)CC1 please.
732

Tell me measured RP-LC retention time for Cc1ccc(C(=O)N2CCC(n3c(-c4ccco4)nc4cccnc43)C2)cc1C (stereo not drawn) please.
806

Tell me measured RP-LC retention time for N#Cc1ccsc1NC(=O)c1ccc2ncsc2c1 please.
725

Tell me measured RP-LC retention time for CCN(c1ccccc1)c1nc(Cl)nc2c1cnn2C please.
1070

Tell me measured RP-LC retention time for CC(C)C(=O)n1nc(-c2ccccc2Cl)nc1N please.
898

Tell me measured RP-LC retention time for CCC(=O)NCc1nc2c(n1CC)CN(S(=O)(=O)c1ccccc1F)CC2 please.
561

Tell me measured RP-LC retention time for O=C(Cc1ccccc1Cl)Nc1nnc(C2CC(=O)N(c3ccc(F)cc3)C2)o1 (stereo not drawn) please.
705

Tell me measured RP-LC retention time for Cc1ccc(Nc2c(-c3ccc(C(=O)O)cc3)nc3cnccn23)c(C)c1 please.
928

Tell me measured RP-LC retention time for Cc1ccc2oc(C(=O)NCC(c3ccccc3)N(C)C)cc(=O)c2c1 (stereo not drawn) please.
619

Tell me measured RP-LC retention time for Cc1nc2cc(-c3noc(COc4ccc(Cl)cc4)n3)ccc2o1 please.
1060

Tell me measured RP-LC retention time for CCCOc1ccc(-c2nnc3sc(-c4ccncc4)nn23)cc1 please.
642

Tell me measured RP-LC retention time for Cc1cnc(C(=O)NC2C[C@H]3CC[C@@H](C2)N3C(=O)c2cnc(C)cn2)cn1 (stereo partly drawn) please.
584

Tell me measured RP-LC retention time for COc1ccc(-c2nc3cnccn3c2Nc2ccc(OC)c(OC)c2)cc1 please.
690

Tell me measured RP-LC retention time for Cc1ccc(-c2nnc(C)c(NCc3ccc4c(c3)OCO4)n2)cc1 please.
730

Tell me measured RP-LC retention time for O=C(Oc1ccc(NC2=NS(=O)(=O)c3ccccc32)cc1)c1ccccc1 please.
935

Tell me measured RP-LC retention time for CCN1C(=O)CCc2cc(NC(=O)Cc3c(F)cccc3Cl)ccc21 please.
792

Tell me measured RP-LC retention time for O=C(NCCN1CCOCC1)C1CCN(c2ccc3nnc(-c4ccccc4F)n3n2)CC1 please.
693

Tell me measured RP-LC retention time for COc1ccc2[nH]c(=O)c(CCC(=O)N(C)CCc3ccncc3)cc2c1 please.
589

Tell me measured RP-LC retention time for CC1=C(c2ccc(Cl)cc2)S(=O)(=O)N=C1N1CCC(C(=O)NCCN(C)C)CC1 please.
642

Tell me measured RP-LC retention time for CCOc1cccc(-c2noc(Cn3c(=O)n(-c4cccc(OC)c4)c(=O)c4sccc43)n2)c1 please.
970

Tell me measured RP-LC retention time for Cc1cc(S(=O)(=O)N2CCOC23CCN(C(=O)C2CC2)CC3)ccc1F please.
789

Tell me measured RP-LC retention time for COC(=O)c1ccc(OC)c(Cn2cnc3c(-c4ccccc4C)csc3c2=O)c1 please.
1060

Tell me measured RP-LC retention time for COCCCNC(=O)C1CCCN(c2ccc(-c3ccc(C)c(C)c3)nn2)C1 (stereo not drawn) please.
647

Tell me measured RP-LC retention time for O=C(NC1CCCCCC1)C1CCN(c2cn[nH]c(=O)c2)C1 (stereo not drawn) please.
652
